Data provenance: paper PMC2756588

# tgt: Sho1, P40073
# Sequence (P40073 287-367): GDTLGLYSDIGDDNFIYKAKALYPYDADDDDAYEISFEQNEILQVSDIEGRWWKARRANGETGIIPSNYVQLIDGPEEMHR
# protocol: SPOT array
# experimental.context: median of control spots 1148
endpoint.label: SPOT intensity

* TKHKAPPPPPPTAET | 0
* SKIRPTPRKPSRMAT | 177
* FYNRTAFQLPGDARV | 4
* KFIPSRPAPKPPSSA | 47
* LASNSPPVYPKRIRH | 7
* MSPLGAPPPPPHKDH | 0
* AVPPPPPPPPLPESL | 0
